The values you see were collected from the supplement of paper PMC6555819.

# Tested on: THRa:RXRa (NR concentration 90 nM, RXRa partner concentration 90 nM)
# TEST DETAILS: PBM binding z-score (relative to random genomic background probes); higher = stronger binding; sequences stand for … in GC…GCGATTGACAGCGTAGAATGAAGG
RESULT TYPE: PBM binding z-score
Give bare numbers.

Field: example entries. Status: answers known.
RECORD SEQUENCE: ATCTCTAGGTAAAGTTCACTGAAAGATCGATAGA
TARGET OF ASSAY: THRa:RXRa (NR concentration 90 nM, RXRa partner concentration 90 nM)
REPORTED VALUE: 1.95
//
RECORD SEQUENCE: ATATGTAGGTTAGCTAGGGTCATTCAGACTAGGC
TARGET OF ASSAY: THRa:RXRa (NR concentration 90 nM, RXRa partner concentration 90 nM)
REPORTED VALUE: 5
//
RECORD SEQUENCE: ACTAGCAGGCCAAGTTTGGGTCACTTAAACAAAG
TARGET OF ASSAY: THRa:RXRa (NR concentration 90 nM, RXRa partner concentration 90 nM)
REPORTED VALUE: 2.58

Below are some sequences; for each one, tell me its PBM binding z-score.
1. CGAACTAGGTCAAGGTCAGTGAATCTCCGCACGC
2. CTCGAAAGGTCGGTTGAGGTGATTATACGGATAA
3. TGAATGAGGTTATAAGATCAGGGATCGTTGCAAA
4. AGAACGAGGGCAGGCTGAGTTGATAGCAGAGTAG
5. CCGACTCGGGCAAAGGTTACCATACTCAGTACGA
6. CAGCCTAGCTCAGGGCCAGTATAGGAGGAACGTT
7. ATCTCTAGGTAACAAGTTAAGTGAAAGAGAGGAC
8. AGTCGAAGTTCAGGACGAGGTAACGTAAAGCACG

Solution:
1: 3.86; 2: 4.96; 3: 1.68; 4: 0.523; 5: 1.6; 6: -0.848; 7: 1.29; 8: 3.25

Problem: Item CCTAGATGGTCAAGGTCACACACGCTATAGGTAC with THRa:RXRa (NR concentration 90 nM, RXRa partner concentration 90 nM) - PBM binding z-score?
Solution: 4.1

====

# System: LXRb homodimer (NR concentration 270 nM)
# TEST DETAILS: PBM binding z-score (relative to random genomic background probes); higher = stronger binding; sequences stand for … in GC…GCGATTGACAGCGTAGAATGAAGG
# binarize PBM binding z-score: threshold -0.6 inclusive, high side 1.0, low side 0.0

Problem: Decide: is the reported value of PBM binding z-score for AGTCAAAGTTCAAGACGAGGTAACGTAAAGCACG equal to or greater than -0.6?
Solution: 1.0

Problem: Decide: is the reported value of PBM binding z-score for CGAACTAGGTCCGAACAGGACAGTGAAGGATGAT equal to or greater than -0.6?
Solution: 0.0

Problem: Decide: is the reported value of PBM binding z-score for CAAACTAGGTCACCGGAAGGTCAACGTCCGCATG equal to or greater than -0.6?
Solution: 1.0

Problem: Decide: is the reported value of PBM binding z-score for AGTCAAAGTTCACCAGGTAACGTAAGATTCAGCT equal to or greater than -0.6?
Solution: 1.0

Problem: Decide: is the reported value of PBM binding z-score for CCTCGCAGGCCAATCTGGGTCACTCAAGGCTTGA equal to or greater than -0.6?
Solution: 0.0

====

# Test system: PPARg:RXRa 30nM:10nM, anti-RXR (NR concentration 30 nM, RXRa partner concentration 10 nM)
# TEST DETAILS: PBM binding z-score (relative to random genomic background probes); higher = stronger binding; sequences stand for … in GC…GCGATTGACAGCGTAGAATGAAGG
RESULT TYPE: PBM binding z-score
Numbers only.

Below are some sequences; for each one, tell me its PBM binding z-score.
1. ATAGACAGGTGAGTGAAGGTAACTCAGCTGGACG
2. TCTAGCAGGCCAGAGGGTCACTCACGAGGTACGG
3. GGAACGAGGGCATTCGAGTTGGTAGCATGGCGAT
4. CCTTACGGGTCACTGACAGGTTATGGCATTTGGA
5. ACAGACAGGTGATGAAGGGAACTCAGGCTATCAT
6. ACTATTAGTTGACTTAGGACAACCGATACGACGC

Solution:
0.155
1.82
-0.573
1.67
0.0362
0.448

Below are some sequences; for each one, tell me its PBM binding z-score.
1. TCTCGGAGTACACGAAGGTCAGAGCTTTCCAGAG
2. AATACATGGTCACTAGGCCAGAGTAGGTACGAAT
3. ATACCAAGGTGATCGTGGGGTCGTTGATACTAAC
4. GGAACGAGGGCATTCTAGTTGATAGCATGGCGAT
5. ACTATTAGTTGAGAAGAGGGCAACCGATAGGTTG

Solution:
1. 1.91
2. 0.153
3. 0.0671
4. -0.247
5. 0.12

Below are some sequences; for each one, tell me its PBM binding z-score.
1. CGTCAAAGTTCAACTAAGGTAACGAAAAGCACGC
2. TCTAGTAGATCAATAGAGGTTAAGAAAGTGCGCT
3. ACTAGTTGGTCAGCTGAGGTCACATACAATTCGG
4. GCTAGCAGGCCATTTGGGTCACTGAATGACGGGC
5. CATATTAGTTGACCATAAGGGCAACCGAAGCTCG
6. CCGACTTGGGCAGAAAGGTTACCATACCATCCGG
7. ATTGAAAGGTCGACGAGGTGAGTATACACCGTTT
8. TCCAGTAGGTTAGGGGCATTCAGAATGGCGTCGA

Solution:
[2.21, 2.76, 0.658, -0.489, 0.713, 0.23, 1.38, 2.86]

====

# Test system: LXRa homodimer (NR concentration 270 nM)
# TEST DETAILS: PBM binding z-score (relative to random genomic background probes); higher = stronger binding; sequences stand for … in GC…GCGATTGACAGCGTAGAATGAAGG
Would you mind classing the entries by PBM binding z-score? Ranges: band A (below -0.3), band B (-0.3 to below 0.2), band C (0.2 or more)

# count of solved cases: 8
RECORD SEQUENCE: ATCGAAGGGTCGAGGTGAGTATAGAGAAAGGGAA
ANSWER LABEL: band B

RECORD SEQUENCE: CGAACTCGGTCAAGGACAGTGAATCTCCGCACGC
ANSWER LABEL: band B

RECORD SEQUENCE: CCTACTGGGACAAGGTCATTGATCAGTCAAAGCA
ANSWER LABEL: band C

RECORD SEQUENCE: TATACAGGGTCAAAGGCTAGAGTACGAATGTCGA
ANSWER LABEL: band C

RECORD SEQUENCE: CAAATTAGGTCAAGGTCAAAGTCGGTTTGTGCCA
ANSWER LABEL: band C

RECORD SEQUENCE: GATACAGGGTCAAAGCCAGAGTACGCGTATTGAT
ANSWER LABEL: band C

RECORD SEQUENCE: CCTGCTAGGTCACGGTCAGCTAATCTACAGTATG
ANSWER LABEL: band C

RECORD SEQUENCE: TCTTGTAGATCAAGCAGGTTAAGAACGCCTGAGT
ANSWER LABEL: band B

Here is another sequence to look at.
Problem: Hi, small favor: classify ATATGTAGCTTATCGGGTCATTCAGTTTGCGCAT by its PBM binding z-score when you get a moment.
Solution: band C

====

# Test system: RARb:RXRa (NR concentration 270 nM, RXRa partner concentration 90 nM)
# TEST DETAILS: PBM binding z-score (relative to random genomic background probes); higher = stronger binding; sequences stand for … in GC…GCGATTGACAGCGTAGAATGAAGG
# binarize PBM binding z-score: threshold 0.7 inclusive, high side label 1, low side label 0

RECORD SEQUENCE: TGAATCAGGTTATAAGATCAGGGAACGTTGCAAA
ANSWER LABEL: label 0
--
RECORD SEQUENCE: TCTTGTAGATCAGCAGGTAAAGAAAGCTGGCCAA
ANSWER LABEL: label 0
--
RECORD SEQUENCE: TCTTATAGATCAAAGGTTAAGAAAGCCGAAGCCT
ANSWER LABEL: label 1
--
RECORD SEQUENCE: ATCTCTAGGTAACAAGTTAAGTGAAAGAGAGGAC
ANSWER LABEL: label 1
--
RECORD SEQUENCE: ACTCGGAAGACAAAGGTCAGAGCTACGCCAGTGA
ANSWER LABEL: label 1

Problem: Decide: is the reported value of PBM binding z-score for CCTACTAGGCCATCAGGTCATTGATATCAACGTT equal to or greater than 0.7?
Solution: label 1
